targetSystem: T1, mTfR-1 K380A on Expi293 cells (mouse, UniProt Q62351 1-763)
T1 construct: whole, on cells
T1 sequence (Q62351 whole entry K380A): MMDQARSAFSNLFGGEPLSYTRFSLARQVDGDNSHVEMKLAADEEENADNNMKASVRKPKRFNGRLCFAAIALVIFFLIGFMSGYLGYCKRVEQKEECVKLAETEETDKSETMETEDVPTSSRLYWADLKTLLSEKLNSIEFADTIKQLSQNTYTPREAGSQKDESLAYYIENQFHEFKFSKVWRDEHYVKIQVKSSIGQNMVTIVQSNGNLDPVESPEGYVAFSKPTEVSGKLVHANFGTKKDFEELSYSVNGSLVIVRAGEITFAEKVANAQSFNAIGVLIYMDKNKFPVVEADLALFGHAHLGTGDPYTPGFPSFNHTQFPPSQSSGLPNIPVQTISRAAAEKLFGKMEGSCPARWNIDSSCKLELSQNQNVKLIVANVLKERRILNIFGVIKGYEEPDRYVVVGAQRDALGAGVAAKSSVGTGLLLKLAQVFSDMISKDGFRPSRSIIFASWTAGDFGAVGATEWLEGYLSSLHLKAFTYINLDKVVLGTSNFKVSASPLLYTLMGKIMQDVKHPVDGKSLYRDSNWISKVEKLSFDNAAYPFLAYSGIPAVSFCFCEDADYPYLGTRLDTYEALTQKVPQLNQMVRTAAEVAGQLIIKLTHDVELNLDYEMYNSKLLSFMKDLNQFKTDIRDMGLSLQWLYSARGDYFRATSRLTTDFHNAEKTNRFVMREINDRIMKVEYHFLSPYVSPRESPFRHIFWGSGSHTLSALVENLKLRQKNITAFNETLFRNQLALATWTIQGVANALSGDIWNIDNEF
test: FACS, transfected Expi293 cells
measuredProperty: % double-positive cells vs WT (%)
Unit % implied. Number only.

INSERT INTO measurements (binder, numericvalue) VALUES
  ('8D3 antibody (anti-mouse TfR-1 control; 8D3-hFc formatted antibody) (antibody, V domains shown) VH: EVQLVESGGGLVQPGNSLTLSCVASGFTFSNYGMHWIRQAPKKGLEWIAMIYYDSSKMNYADTVKGRFTISRDNSKNTLYLEMNSLRSEDTAMYYCAVPTSHYVVDVWGQGVSVTVSS VL: DIQMTQSPASLSASLEEIVTITCQASQDIGNWLAWYQQKPGKSPQLLIYGATSLADGVPSRFSGSRSGTQFSLKISRVQVEDIGIYYCLQAYNTPWTFGGGTKLELK', 66),
  ('Clone C variant 18 VNAR-hFc (Fc fusion, not shown: a dimerising Fc or GST, also called Clone C v18; Clone C var; 18) ARVDQTPQTITKETGESLTINCVLRDSNCALSSTYWYRKKSGSTNEENISKGGRYVETVNSGSKSFSLRINDLTVEDSGTYRCNVVQYPQYPNYFWCDVYGDGTAVTVN', 162),
  ('Clone C VNAR-hFc fusion (Fc fusion, not shown: a dimerising Fc or GST, bivalent VNAR-Fc; also called Clone C-hFc) ARVDQTPQTITKETGESLTINCVLRDSNCALSSTYWYRKKSGSTNEENISKGGRYVETVNSGSKSFSLRINDLTVEDSGTYRCNVVQYPSYNNYFWCDVYGDGTAVTVN', 193);

Now turn to the next binder.
The reported value for Clone C variant 13 VNAR-hFc (Fc fusion, not shown: a dimerising Fc or GST, also called Clone C v13; Clone C var; 13) ARVDQTPQTITKETGESLTINCVLRDSNCALSSTYWYRKKSGSTNEENISKGGRYVETVNSGSKSFSLRINDLTVEDSGTYRCNVVQYPQQDNYFWCDVYGDGTAVTVN in terms of % double-positive cells vs WT is 81
